Origin of the recorded values: BindingDB's records for doi:10.1002/1439-7633(20020902)3:9

For reference, pIC50 measured on Inositol-trisphosphate 3-kinase A (Homo sapiens, UniProt P23677):
pIC50: −log10 of the molar value.
readout: pIC50

Consider the following illustrative entries.
O=[N+]([O-])c1ccc(CNc2nc(NCc3cccc(Cl)c3)nc3nc[nH]c23)cc1 = 4.70
FC(F)(F)c1ccc(CNc2nc(NCc3ccc(C(F)(F)F)cc3)c3[nH]cnc3n2)cc1 = 3.99

[A] O=[N+]([O-])c1ccc(CNc2nc(NCc3ccc(C(F)(F)F)cc3)nc3nc[nH]c23)cc1
[B] O=[N+]([O-])c1ccc(CNc2nc(NCc3ccccc3F)nc3nc[nH]c23)cc1
[C] O=[N+]([O-])c1ccc(CNc2nc(NCc3cccc(C(F)(F)F)c3)nc3[nH]cnc23)cc1
[D] Fc1ccc(CNc2nc(NCc3ccccc3)c3[nH]cnc3n2)cc1
Please produce an ascending ranking of these compounds based on pIC50. Respond with the label ranking, as requested.
D, A, B, C
(D: 3.66, A: 4.17, B: 4.63, C: 4.99)
